experimentalSystem: MMP9 (Homo sapiens, UniProt P14780)
Sequence (P14780 107-707 limits assumed, species assumed): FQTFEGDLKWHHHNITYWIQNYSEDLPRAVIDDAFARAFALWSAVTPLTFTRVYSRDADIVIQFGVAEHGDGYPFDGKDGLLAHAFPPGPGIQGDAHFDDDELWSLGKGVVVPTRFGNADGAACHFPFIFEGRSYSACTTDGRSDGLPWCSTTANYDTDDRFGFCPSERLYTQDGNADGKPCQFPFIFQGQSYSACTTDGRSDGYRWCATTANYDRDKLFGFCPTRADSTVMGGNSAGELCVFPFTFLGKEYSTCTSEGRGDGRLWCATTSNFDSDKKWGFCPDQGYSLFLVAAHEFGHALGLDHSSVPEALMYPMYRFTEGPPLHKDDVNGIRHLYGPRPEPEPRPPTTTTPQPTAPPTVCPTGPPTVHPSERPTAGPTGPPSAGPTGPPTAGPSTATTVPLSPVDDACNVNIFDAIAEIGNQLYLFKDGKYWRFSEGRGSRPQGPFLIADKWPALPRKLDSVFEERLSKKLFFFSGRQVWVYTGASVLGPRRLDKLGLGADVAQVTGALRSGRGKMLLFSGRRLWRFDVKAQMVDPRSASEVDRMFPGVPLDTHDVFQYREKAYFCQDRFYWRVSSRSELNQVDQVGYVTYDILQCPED
experimentNotes: Enzymolysis assay of polypeptides by MMP9 (RP-HPLC)
Format: biochemical
measurementConditions: polypeptide 100 µmol with activated MMP9, 37°C, 4 h, RP-HPLC peak areas
Square brackets hold non-standard residues; d marks the D form. Peptide text beside a SMILES is read from it. Cit = NC(=O)NCCC[C@H](N)C(=O)O
readoutType: Enzymolysis efficiency (%)
Only the number, expressed in %, is required.

• CC(=O)NCC(=O)N1CCC[C@H]1C(=O)N[C@@H](C)C(=O)N[C@@H](C)C(=O)N[C@@H](CC(C)C)C(=O)N[C@H](C(=O)N[C@@H](CCCNC(N)=O)C(N)=O)C(C)C [Compound 1-P12] (Ac-GPAALV[Cit]-NH2) = 20.93

Q: Indicate the recorded Enzymolysis efficiency (%) value for this molecule: CC(=O)N[C@@H](CO)C(=O)N1CCC[C@H]1C(=O)N[C@@H](CCCNC(=N)N)C(=O)N[C@@H](CC(N)=O)C(=O)N[C@@H](CC(C)C)C(=O)N[C@H](C(=O)N[C@@H](CCCNC(N)=O)C(N)=O)C(C)C [Compound 2-P21] (Ac-SPRNLV[Cit]-NH2)
Ans: 95.84
